// note: IC50 values for Tyrosine-protein kinase JAK2 (Homo sapiens, UniProt O60674) were reported in different studies

Quick check: IC50 on Tyrosine-protein kinase JAK2 (Homo sapiens, UniProt O60674), item COCCC(C1CCCCC1)n1cc(-c2nc(-c3cnn(C)c3)cc3nccn23)cn1 (centres unmarked) ?
> 1000 nM

Next up: `CC(C)(C)NS(=O)(=O)c1cccc(N2CCc3cnc(Nc4ccc(CN5CCCC5)cc4)nc32)c1`
0.6 nM

Queued: C[C@@H](O)c1nc2cnc3ccoc3c2n1C1CCN(C(=O)NCC(F)(F)F)C1 (some centres unmarked)
> 1000 nM

Record: `CCS(=O)(=O)N1CC(CC#N)(n2cc(-c3nc(Nc4ccc(C#N)cc4)nc4ccsc34)cn2)C1`
< 50 nM

What would you report for `CS(=O)(=O)Nc1ccnc(-c2cnc3[nH]ccc3c2N[C@@H]2CCCN(C(=O)CC#N)C2)c1` ?
100 to 1000 nM

What about this molecule? N#CC1CCN(S(=O)(=O)NC23CC(n4cnc5cnc6[nH]ccc6c54)(C2)C3)C1 (centres unmarked)
334 nM

Can you handle `N#CCC(=O)NC12CC(n3cnc4cnc5[nH]ccc5c43)(C1)C2` next?
166 nM

# repeat for CN(C)C(=O)c1ccc(Nc2nccc(-c3cnn(C(CC#N)C4CCCC4)c3)n2)cc1 (racemic)
< 100 nM

###

Let's look at some IC50 data for Tyrosine-protein kinase JAK2 (Homo sapiens, UniProt O60674) that I collected from the literature.

IC50 for CN(C)C1CCN(C(=O)c2ccc(Nc3nccc(-c4cnn(C(CC#N)C5CCCC5)c4)n3)cc2)C1 (mixture of isomers) ?
< 100 nM

More entries:
Give its IC50 value. Item: `CCCCCNc1nc(Nc2ccc3c(c2)NC[C@H](O)CO3)ncc1C(N)=O`
< 10 nM

What about `Cc1cccc(-c2cnc3[nH]ccc3c2N[C@@H]2CCCN(C(=O)CC#N)C2)n1` ?
10 to 100 nM

Try `C[C@H]1C[C@@H](Oc2ccc(-c3ncnc(Nc4ccc(N5CCN(C6COC6)CC5)cc4)n3)cc2C#N)CN1C(=O)CO` next.
525 nM

// next record `Cc1cnc2nc1Nc1ccccc1CCCNC(=O)c1ccc(cc1F)-c1cnc(F)c(c1)N2`
11 to 100 nM

And the next one, `CN(c1nc(Nc2cnn(C)c2)ncc1Cl)C1CCN(c2ccc(C#N)cn2)CC1` ?
17 nM

Note, next up: CCC(Cn1ccc2cnc(Nc3cnn(CC(=O)OC(C)C)c3)nc21)C(C)C (centres unmarked)
< 100 nM

Next compound: `CCC(=O)N1CCC2(CCC(N(C)c3ncnc4[nH]ccc34)CC2)CC1`
100 to 1000 nM

###

Compiled from multiple publications: IC50 readings for Tyrosine-protein kinase JAK2 (Homo sapiens).

Reference set (3 entries):
Which IC50 value is on record for N#CCC(C1CC1)n1cc(-c2ccnc(Nc3ccc(C(=O)N4CC[C@H](F)C4)cc3)n2)cn1 (mixture of isomers) ?
< 100 nM

Consider next the compound `CC(=O)Nc1cccc(Nc2cc3c(ccn3S(=O)(=O)c3ccccc3OC(F)(F)F)cn2)c1` in the same way.
> 1000 nM

Another compound to look at: CN1CCCC1CCNC(=O)c1noc2c1CN(c1ncnc3[nH]ccc13)CC2 (stereo not shown)
500 to 2000 nM

Next item in the queue.
Would you kindly share the measured IC50 for O=C(NCC(F)(F)F)C1CCCN(Nc2ncnc3[nH]ccc23)C1 (stereo not shown) ?
10 to 100 nM
